# assay explanation: Plasma pharmacokinetics of ALM201 in Phase I patients (validated LC-MS/MS, Phoenix WinNonlin)
# measurement context: human, plasma, sc, 160 mg, Cmax, Gmean (CV), 160 mg SC, day 1 cycle 1, n = 3; plasma LC-MS/MS
No end group written: not given here.
measurement kind: Cmax (ng/mL)
Write down the numeric answer in ng/mL and omit the unit.

The reported Cmax of the sequence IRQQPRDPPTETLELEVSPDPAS [ALM201] was 1990

----------
# assay explanation: Plasma pharmacokinetics of ALM201 in Phase I patients (validated LC-MS/MS, Phoenix WinNonlin)
# measurement context: human, plasma, sc, 20 mg, Plasma concentration, geometric mean (CV%), 20 mg SC, day 1 cycle 1, 0.75 h after dosing, n = 1; LC-MS/MS
No end group written: not given here.
measurement kind: level at 0.75 h (ng/mL)
Write down the numeric answer in ng/mL and omit the unit.

The reported level at 0.75 h of the sequence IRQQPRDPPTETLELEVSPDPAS [ALM201] was 368
